Hey, just so you know, these numbers are from PubChem BioAssay (Tox21).

Biological target: Thyrotropin-releasing hormone receptor (Homo sapiens)
Assay: qHTS assay to identify small molecule antagonists of the thyrotropin-releasing hormone receptor (TRHR) signaling pathway (AID 1346877); also: % is scaled to controls: 0 for no effect and ±100 for the full control effect
Conditions: TRHR-HEK293, TRH-induced calcium fluorescence, antagonist mode; series mostly up to 51.3 µM
Activity calls are given as the source filed them. Calls follow the shape of the dose curve; as a rule, active = well fitted inhibition curve with a large enough effect in the repeat runs (not every such curve was filed as active); inconclusive = weak or mixed curves; inactive = flat fitted curve, though single readings scatter.
PROPERTY: activity, negative = inhibition

Study these solved cases before continuing.
CC1(C)CC(N)CC(C)(C)N1 : inactive
CCC(C)c1nccnc1OC (stereo not drawn) : inactive
CCN1CCN(C(=O)N[C@@H](C(=O)N[C@@H]2C(=O)N3C(C(=O)O)=C(CSc4nnnn4C)CS[C@H]23)c2ccc(O)cc2)C(=O)C1=O : inactive
O=S(=O)(O)c1ccc(Cl)cc1 : inactive
C[C@@H]1NC(=O)[C@@H](N)CNC(=O)[C@H](C2CCNC(N)=N2)NC(=O)/C(=C/NC(N)=O)NC(=O)[C@H](CNC(=O)C[C@@H](N)CCCN)NC1=O (stereo partly drawn) : -1.68% [at 0.194 µM] (inactive)
Cc1ccc(NC(N)=O)cc1 : inactive
CC(=O)SCC(CC(=O)c1ccc(C)cc1)C(=O)O (stereo not drawn) : inactive
CC/C=C\CCOC(=O)c1ccccc1 : inactive
CCCCCCCCCCCC(C)=O : inactive
Nc1cc(S(=O)(=O)O)ccc1O : inactive

The molecule COc1cc2nc(N3CCN(C(=O)C4CCCO4)CC3)nc(N)c2cc1OC (stereo not drawn) showed activity, negative = inhibition equal to inactive

Input `C=C(C)C(=O)OCCCC` . Output activity, negative = inhibition: inactive

Record summary for C[C@@H]1CCC[C@H](C)N1CCCC(O)(c1ccccc1)c1ccccn1 (stereo partly drawn) : reported activity, negative = inhibition = inactive

###

Target: Cytochrome P450 2D6 (Homo sapiens) (UniProt P10635)
Sequence (P10635 whole entry, looked up): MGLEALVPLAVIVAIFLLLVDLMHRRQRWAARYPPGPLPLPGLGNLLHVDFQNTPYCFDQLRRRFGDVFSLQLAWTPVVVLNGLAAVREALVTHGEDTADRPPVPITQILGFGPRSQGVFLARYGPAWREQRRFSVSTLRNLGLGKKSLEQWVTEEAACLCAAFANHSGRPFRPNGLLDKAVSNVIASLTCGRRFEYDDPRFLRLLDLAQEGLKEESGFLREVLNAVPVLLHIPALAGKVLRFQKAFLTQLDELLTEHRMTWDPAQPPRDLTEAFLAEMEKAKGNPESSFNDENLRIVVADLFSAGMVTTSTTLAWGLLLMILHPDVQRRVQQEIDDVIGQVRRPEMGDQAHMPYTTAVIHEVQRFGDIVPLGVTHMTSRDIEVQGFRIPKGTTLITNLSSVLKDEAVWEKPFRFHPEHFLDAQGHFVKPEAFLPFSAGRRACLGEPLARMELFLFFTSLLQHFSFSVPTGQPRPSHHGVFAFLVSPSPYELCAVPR
Test: Cytochrome P450 Family 2 Subfamily D Member 6 (CYP2D6) small molecule antagonists: luciferase reporter qHTS assay (AID 1671196); also: nearly all actives have a fitted effect of over 50% in size
Conditions: P450-Glo CYP2D6 enzyme assay, luciferin luminescence, 1 h; series mostly up to 115 µM
Results filed as inconclusive are left out. Active and inactive are the calls of the source. Calls come from the whole dose curve; as a rule, active = well fitted inhibition curve with a large enough effect in the repeat runs; inconclusive = weak or mixed curves; inactive = no such curve, though single readings can be large or run the other way.
The reply should name one outcome from label 1 (active), label 0 (inactive)

Answered examples (6):
CC(=O)c1ccc2ccc3ccccc3c2c1 : label 0
CSC(=O)c1cccc2nnsc12 : label 1
Cc1ccc2ccccc2n1 : label 0
CC(C)=CCC/C(C)=C\C#N : label 0
CC(=O)OC1CCC(C(C)(C)C)CC1 (stereo unspecified) : label 0
CN(C)c1ccncc1 : label 1

Q) For `CCCCCCC(=O)c1ccccc1` , which call appears in the assay record?
A) label 0

Q) // outcome(item) with item = `O=P(O)(O)C(O)(Cc1cccnc1)P(=O)(O)O`
A) label 0

Q) Identify the outcome logged in this assay for the compound shown: `O=C[C@@H](O)[C@H](O)[C@H](O)CO`
A) label 0

Q) Give the logged outcome of this assay for the following compound: CN1C(CCl)Nc2cc(Cl)c(S(N)(=O)=O)cc2S1(=O)=O (stereo unspecified)
A) label 0

Q) I'd appreciate the recorded outcome for `O=C(O)/C=C(\CC(=O)O)C(=O)O` from this test.
A) label 0

Q) Per the records of this test, what outcome belongs to `CCCC(=O)CC` ?
A) label 0

Q) For this compound, state the assay outcome: `CCc1ccc(CC)cc1`
A) label 0

Q) Dear colleague, could you share the recorded outcome for `CCN1CCN(C(=O)N[C@@H](C(=O)N[C@@H]2C(=O)N3[C@@H]2SC(C)(C)[C@H]3C(=O)O)c2ccccc2)C(=O)C1=O` when you have a moment?
A) label 0

Q) So what was the verdict on COC(=O)C(c1ccccc1Cl)N1CCc2sccc2C1 (stereo unspecified) in this test?
A) label 1

Q) // outcome(item) with item = `CC/C=C/CCCCCCCCCCOC(C)=O`
A) label 0

Q) What call does the record list for `CC(=O)SC[C@@H](C)C(=O)N1CCC[C@H]1C(=O)N[C@@H](Cc1ccccc1)C(=O)O` ?
A) label 0

Q) Give the logged outcome of this assay for the following compound: `O=S(=O)(O)c1cc(I)c(O)c2ncccc12`
A) label 0

###

Experiment: qHTS assay to test for compound auto fluorescence at 535 nm (green) in HepG2 cells (AID 720675); also: % is scaled to controls: 0 for no effect and ±100 for the full control effect
Settings: green autofluorescence 485/535 nm, 1 h; series mostly up to 91.3 µM
From the text: National Center for Advancing Translational Sciences [NCATS] NIH Chemical Genomics Center [NCGC] U.S. Environmental Protection Agency [EPA] National Institutes of Environmental Health Sciences [NIEHS] National Toxicology Program [NTP] U.S. Food and Drug Administration [FDA] Compound auto fluorescence often interferes with screening of the compound library against various biological targets and signaling pathways. Some of these compounds may have fluorophoric properties. […]
Activity calls are given as the source filed them. Calls come from the whole dose curve; as a rule, active = well fitted curve in the direction sought with a large enough effect in the repeat runs; inconclusive = weak or mixed curves; inactive = flat fitted curve, though single readings scatter.
PROPERTY: fluorescence, % of fluorescein control

Example results:
Cc1ccc(Br)cc1 : inactive
CCCCCCCCCCCCCCCC(=O)OC : -0.0233% [at 18.6 µM] (inactive)
N=C(N)S(=O)O : inactive
CC(C)(C)NCC(O)COc1cccc2c1CCC(=O)N2 (stereo not drawn) : -0.225% [at 18.6 µM] (inactive)
CC(=O)Oc1ccc(C(C)=O)cc1 : inactive

The value of fluorescence, % of fluorescein control measured for the compound `CCN(CC)CC` turned out to be inactive

// recorded fluorescence, % of fluorescein control for `C/C=C(\C)C(=O)OC/C=C(\C)CCC=C(C)C` : inactive

Sample `C=CCn1cc[n+](C)c1` ; fluorescence, % of fluorescein control observed: inactive

###

Target: Thyrotropin receptor (Homo sapiens) (UniProt P16473)
Sequence (P16473 whole entry, looked up): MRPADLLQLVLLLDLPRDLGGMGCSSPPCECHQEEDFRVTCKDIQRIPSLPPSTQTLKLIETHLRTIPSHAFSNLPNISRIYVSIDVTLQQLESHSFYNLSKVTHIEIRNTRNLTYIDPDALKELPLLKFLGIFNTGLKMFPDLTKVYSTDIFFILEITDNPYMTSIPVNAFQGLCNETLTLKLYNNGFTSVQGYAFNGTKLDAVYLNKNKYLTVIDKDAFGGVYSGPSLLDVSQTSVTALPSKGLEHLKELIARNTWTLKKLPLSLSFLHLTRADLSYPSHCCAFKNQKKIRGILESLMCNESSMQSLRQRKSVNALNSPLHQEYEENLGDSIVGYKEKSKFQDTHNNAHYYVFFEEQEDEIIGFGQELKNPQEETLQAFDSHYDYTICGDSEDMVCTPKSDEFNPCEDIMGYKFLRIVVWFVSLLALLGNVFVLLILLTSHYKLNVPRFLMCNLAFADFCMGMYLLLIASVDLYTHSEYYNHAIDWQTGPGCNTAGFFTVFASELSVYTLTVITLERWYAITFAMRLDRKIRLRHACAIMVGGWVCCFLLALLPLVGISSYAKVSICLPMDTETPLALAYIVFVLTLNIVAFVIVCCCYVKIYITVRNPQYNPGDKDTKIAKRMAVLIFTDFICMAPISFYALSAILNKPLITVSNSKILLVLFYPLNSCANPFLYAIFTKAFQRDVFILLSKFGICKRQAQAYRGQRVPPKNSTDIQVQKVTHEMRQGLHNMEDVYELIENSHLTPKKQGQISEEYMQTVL
Assay: qHTS assay to identify small molecule agonists of the thyroid stimulating hormone receptor (TSHR) signaling pathway (AID 1224843); also: % is scaled to controls: 0 for no effect and ±100 for the full control effect; nearly all actives have a fitted effect of over 45% in size
Details: TSHR-HEK293 cells, cAMP HTRF, agonist mode, 30 min; series mostly up to 92.4 µM
Inconclusive results are not listed. Active and inactive are the calls of the source. Calls follow the shape of the full dose curve.
PROPERTY: activation

N=C(N)N1CCc2ccccc2C1 : -1.09% [at 8.39 µM] (inactive)
NS(=O)(=O)c1cc2c(cc1C(F)(F)F)NCNS2(=O)=O : inactive
C=CC(=O)CC : inactive
CC1(C)S[C@@H]2[C@H](NC(=O)Cc3ccccc3)C(=O)N2[C@H]1C(=O)O (tested in a mixture with another compound) : inactive
CCCCCCC(=O)c1ccccc1 : inactive

// `O=CN1CCCCC1` : activation value = inactive

The molecule listed as `CCO/C=C1\N=C(c2ccccc2)OC1=O` has a reported activation of inactive

###

Assay: qHTS assay for small molecule disruptors of the mitochondrial membrane potential - cell viability (AID 720634);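 also: human HepG2 liver cancer cells; % is scaled to controls: 0 for no effect and ±100 for the full control effect; nearly all actives have a fitted effect of over 20% in size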
Conditions: HepG2 viability, ATP luminescence (CellTiter-Glo), 1 h; series mostly up to 83.2 µM
Results filed as inconclusive are left out. The source made the active and inactive calls. Calls come from the whole dose curve.
PROPERTY: activity change, negative = cytotoxicity

O=CN1CCCCC1 : inactive
CC1(C)S[C@@H]2[C@H](NC(=O)Cc3ccccc3)C(=O)N2[C@H]1C(=O)O (tested in a mixture with another compound) : inactive
CCCCCCCCC1CO1 (stereo unspecified) : inactive
CCCCN(CCCC)CCCCCCN(CCCC)CCCC : inactive

Entry `CN(C)c1ccncc1` , activity change, negative = cytotoxicity reported as inactive

Lab note: `Cc1ccc(O)c([N+](=O)[O-])c1` gave activity change, negative = cytotoxicity of inactive

In plain terms, `CN(C)c1cc(NC(=O)CNC(C)(C)C)c(O)c2c1C[C@H]1C[C@H]3[C@H](N(C)C)C(=O)C(C(N)=O)=C(O)[C@@]3(O)C(=O)C1=C2O` has a documented activity change, negative = cytotoxicity of inactive

###

Target: Thyrotropin receptor (Homo sapiens) (UniProt P16473)
Assay: qHTS assay to identify small molecule agonists of the thyroid stimulating hormone receptor (TSHR) signaling pathway (AID 1224843); also: % is scaled to controls: 0 for no effect and ±100 for the full control effect; nearly all actives have a fitted effect of over 45% in size
Conditions: TSHR-HEK293 cells, cAMP HTRF, agonist mode, 30 min; series mostly up to 92.4 µM
Records with an inconclusive call do not appear. Calls of active or inactive are those of the source. The call rests on the fitted dose curve.
PROPERTY: activation

# annotated cases, reported activation shown
CCCCNCC : inactive
O=C1Nc2ccccc2C1=O : inactive
CC(=O)SCC(CC(=O)c1ccc(C)cc1)C(=O)O (stereo not drawn) : inactive
C[n+]1ccccc1/C=N/O : inactive

`CN(C)c1ccncc1` yielded activation of inactive

Value of activation reported for the compound `Cc1ccc(Br)cc1` is inactive

Sure, the documented activation for `Cc1nnc(C(=O)NC(C)(C)c2nc(C(=O)NCc3ccc(F)cc3)c(O)c(=O)n2C)o1` is inactive

// `CCCCCCCCCCCCCCCC(=O)OC` : activation value = -0.158% [at 19 µM] (inactive)

Measured activation of `CC(C)(C)OC(=O)c1ccccc1C(=O)O` : inactive

Field activation (entry CCCCCCCCCCCCCCCC/C=C/C1CC(=O)OC1=O (stereo not drawn) ) reads inactive

For reference, reported activation for `COc1cnc(NS(=O)(=O)c2ccc(N)cc2)nc1` stands at inactive

Please fill in: activation reported for `NC[C@H]1O[C@H](O[C@H]2[C@H](O)[C@@H](O[C@H]3O[C@H](CO)[C@@H](O)[C@H](N)[C@H]3O)[C@H](N)C[C@@H]2N)[C@H](N)[C@@H](O)[C@@H]1O` = -7.89% [at 19 µM] (inactive)

Recorded activation (compound `CC(C)C[P+](C)(CC(C)C)CC(C)C` ): inactive
